Measured Inhibition by item
System: Plasmodium falciparum
Test: GSK_TCMDC: Inhibition of Plasmodium falciparum 3D7 in whole red blood cells, using parasite LDH activity as an index of growth. Test compounds present at 2uM
Type: functional
Response body: numeric value in %, unit text excluded.

# example entries with known answers
compound=Cc1c(CC(=O)N(C)C2CCN(CCCCCNC(=O)/C=C/c3ccc(Cl)c(Cl)c3)CC2)sc2ccc(Cl)cc12 reported_property=Inhibition endpoint_value=95
compound="CCCCCCC(C)c1cc(OCCN(CC)CC)c2c(c1)OC(C)(C)C=C2c1ccncc1.Cl (stereo not drawn)" reported_property=Inhibition endpoint_value=90
compound=C=CCn1c(=N)c(C(=O)NC2CCCCC2)cc2c(=O)n3cccc(C)c3nc21 reported_property=Inhibition endpoint_value=92
compound=O=C(Cc1ccc[n+]([O-])c1)Nc1cccc(-c2cccc(-c3nc4cc(F)ccc4[nH]3)c2)c1 reported_property=Inhibition endpoint_value=92
compound=O=S(=O)(Nc1cccc(CCN2CCC(N3CCCCC3)CC2)c1)c1ccc(-c2ccccc2)cc1 reported_property=Inhibition endpoint_value=100
compound=COc1ccc2nc(-c3ccccc3)cc(N/N=C/c3ccc([N+](=O)[O-])cc3)c2c1 reported_property=Inhibition endpoint_value=100
compound=CCCN(CCC)CCCN(CCCN(CCC)CCC)c1cc(C)nc(Nc2ccc3cc(Br)ccc3c2)n1.Cl reported_property=Inhibition endpoint_value=98
compound=C=C[C@H]1CN(CCCCCCC)CC[C@H]1C[C@@H](Cc1ccnc2ccc(OC)cc12)OC(=O)[C@](OC)(c1ccccc1)C(F)(F)F reported_property=Inhibition endpoint_value=96
compound="CCC1(c2ccccc2)N=C(N)N(CCCc2ccccc2)C1=O (stereo not drawn)" reported_property=Inhibition endpoint_value=90
compound="O=C(NCCN1CCOCC1)c1csc(C2CCCN(C(=O)c3ccc(O)c(-c4cc(Cl)cc(Cl)c4)c3)C2)n1 (stereo not drawn)" reported_property=Inhibition endpoint_value=97

// below: Inhibition requested for another compound
// returns reported Inhibition for input CCOc1ccc(NC(C)=O)c(O)c1
96

* * *

Measured Inhibition by item
Tested on: Plasmodium falciparum
Test: GSK_TCMDC: Inhibition of Plasmodium falciparum 3D7 in whole red blood cells, using parasite LDH activity as an index of growth. Test compounds present at 2uM
Assay type: functional
Response body: numeric value in %, unit text excluded.

# example entries with known answers
compound=COc1ccc(NC(=O)[C@H](Cc2ccccc2)Nc2cc(C)nc(NCCN3CCCC3)n2)cc1.O=C(O)C(F)(F)F assay_system="Plasmodium falciparum" endpoint_value=97
compound=COc1cccc(-c2cc(C(=O)Nc3cc(Oc4ccc(O)cc4)cc([N+](=O)[O-])c3)on2)c1 assay_system="Plasmodium falciparum" endpoint_value=89

Form entry - test system: Plasmodium falciparum; read-out: Inhibition; compound: CC(=O)c1ccc2c(c1)CCN(CCC1CCC(NC(=O)c3cc4ccccc4[nH]3)CC1)CC2.Cl (centres undefined)
86

Proceed to Cc1ccc(NC(=O)Nc2ccc(I)c(OCCN(C)C)c2)cc1Cl
98

Proceed to c1ccc(-n2cncn2)cc1
93

* * *

Test system: Plasmodium falciparum
Test: GSK_TCMDC: Inhibition of Plasmodium falciparum Dd2 in whole red blood cells, using parasite LDH activity as an index of growth. Test compounds present at 2uM
Assay type: functional
Measured Inhibition by item
Response body: numeric value in %, unit text excluded.

# example entries with known answers
compound=Cc1cc(=O)c(-c2ccc(Oc3cccc(OC(F)(F)F)c3)cc2)c(C)[nH]1 assay_system="Plasmodium falciparum" reported_property=Inhibition endpoint_value=96
compound=C=C[C@H]1CN(CCCCCCC)CC[C@H]1CC(=O)Nc1cnnc2ccc(OC)cc12.O=C(O)C(=O)O assay_system="Plasmodium falciparum" reported_property=Inhibition endpoint_value=100
compound="COc1cc2nc(NCC3CCCO3)n3nc(-c4ccccc4)nc3c2cc1OC (centres undefined)" assay_system="Plasmodium falciparum" reported_property=Inhibition endpoint_value=97
compound=Cc1csc(-c2nonc2NC(=O)COc2ccccc2C(C)C)n1 assay_system="Plasmodium falciparum" reported_property=Inhibition endpoint_value=85
compound=Fc1c(CNCC2CCN(CC3CCCCC3)CC2)cccc1C(F)(F)F.O=C(O)C(F)(F)F assay_system="Plasmodium falciparum" reported_property=Inhibition endpoint_value=7
compound=Br.CC1(C)NC(N)=NC(=N)N1OCCCc1cc(Cl)c(Cl)cc1Cl assay_system="Plasmodium falciparum" reported_property=Inhibition endpoint_value=96
compound=CCCCCn1c(Sc2ccc(C#N)c([N+](=O)[O-])c2)nnc1-c1cc(OC)cc(OC)c1 assay_system="Plasmodium falciparum" reported_property=Inhibition endpoint_value=24
compound=Cn1cc(CCNc2ccnc(N3CCC(c4ncc[nH]4)CC3)n2)c2ccccc21 assay_system="Plasmodium falciparum" reported_property=Inhibition endpoint_value=5

// returns reported Inhibition for input COc1cccc(CNc2ncc(-c3ccsc3)c(-c3nccs3)n2)c1
82

Proceed to O=C(O)C(F)(F)F.O=C1CCCN1CCCNCc1ccc(-c2cccc(-c3nc4ccccc4[nH]3)c2)cc1
0

Proceed to COc1ccccc1CNC(=O)c1cc(OC)c(OC)cc1NC(=O)c1cccs1
71

Proceed to O=C(Nc1ccc(-c2nc3ccccc3[nH]2)cc1)c1ccc(S(=O)(=O)N2CCCCCC2)cc1
21

Proceed to Cl.Clc1ccc(-n2cnc3c(Nc4ccc(Oc5ccccc5)cc4)ncnc32)cc1Cl
65
